READOUT LABEL: melting point

Example molecules with recorded melting point:
MOLECULE: Cc1c(N2CC[C@@H](N)[C@H](C)C2)c(F)cc2c(=O)c(C(=O)O)cn(C3CC3)c12 (relative stereo)
melting point: 223 to 225 °C

MOLECULE: CCN(c1ccc(Br)cc1)c1nc(=O)c2cccnc2s1
melting point: 166 to 167 °C

MOLECULE: OC1CCN(c2ccccc2)C12CCNCC2 (racemic)
melting point: 141 to 144 °C

MOLECULE: N=C(N)Nc1nc(CCCCC(=N)NS(N)(=O)=O)cs1
melting point: 156 to 157 °C

MOLECULE: CCCSc1cc(C(=O)O)cc(S(N)(=O)=O)c1-c1ccccc1
melting point: 85 to 87 °C

MOLECULE: CCn1cc(C(=O)O)c(=O)c2cc(F)c(N3CCN(C)C(c4cccs4)C3)cc21 (stereo unspecified)
melting point: 238 to 240 °C

Q: Please report the recorded melting point for `N#Cc1nc(-c2ccccc2)c[nH]1` .
A: 151 to 153 °C

Q: Please report the recorded melting point for C=CC=CCC1=C(C)C(OC(=O)C2C(C=C(C)C)C2(C)C)CC1=O (stereo unspecified) .
A: 57 °C

Q: Please report the recorded melting point for `CC(C)(C)OC(=O)N1CCC2(CC1)C(=O)N(CC(=O)O)CN2c1ccccc1` .
A: 200 to 201 °C

Q: Please report the recorded melting point for `O=C(Nc1cccnc1Cl)c1ccccc1[N+](=O)[O-]` .
A: 160 °C

Q: Please report the recorded melting point for O=C1c2ccccc2C(=O)N1CC1CCOC1 (stereo unspecified) .
A: 114 to 118 °C

Q: Please report the recorded melting point for `CS(=O)(=O)c1ccc(-c2oc(CCC(N)=O)nc2-c2ccc(F)cc2)cc1` .
A: 193 to 195 °C

Q: Please report the recorded melting point for COC1C(OC(=O)c2ccccc2)C=C(C)C(=O)CC1(C)C (stereo unspecified) .
A: 97 to 98 °C

Q: Please report the recorded melting point for `CC1(C)[C@@H](CN2CCCCC2)CC[C@@]1(C)NCC(=O)N1C[C@@H](F)C[C@H]1C#N` .
A: 100 to 103 °C

Q: Please report the recorded melting point for `Cc1ccn2c(Br)c(CCc3ccc4nc(N)sc4c3)nc2c1` .
A: 233 to 236 °C

Q: Please report the recorded melting point for CCc1c(C(=O)NNC(=O)C(O)c2cc(F)cc(F)c2)ccc(OC)c1C (stereo unspecified) .
A: 197 °C

Q: Please report the recorded melting point for `N#Cc1c(N)nc2ccc(N3CCN(Cc4ccccc4)CC3)cc2c1Cl` .
A: 206 °C

Q: Please report the recorded melting point for `O=c1[nH]ncc2[nH]c(-c3ccc(OC(F)F)c(OCC4CC4)c3)c(Cl)c12` .
A: 258 to 260 °C

Q: Please report the recorded melting point for `O=C(O)c1ccc2nc3ccc(C(=O)O)nn3c(=O)c2c1` .
A: > 285 °C

----------
READOUT LABEL: melting point

Example molecules with recorded melting point:
MOLECULE: N#Cc1ccc(C(=O)OC2CCN(Cc3ccccc3)CC2)cc1
melting point: 110 to 111 °C

MOLECULE: O=c1[nH]c(=O)n(C2CC(O)C(CO)O2)cc1-c1ccccn1 (stereo unspecified)
melting point: 201 to 203 °C

MOLECULE: O=C(c1ccccc1)c1nc(Br)ccc1[N+](=O)[O-]
melting point: 146 to 148 °C

MOLECULE: CCCNc1nc(NCCC)nc(Nc2ccc(OC)c(F)c2)n1
melting point: 53 to 55 °C

MOLECULE: CC(C)(C)OC(=O)NC(Cc1c[nH]c2ccccc12)C(=O)OCCl (stereo unspecified)
melting point: 155 to 157 °C

Now consider the entry below.
Q: Please report the recorded melting point for CC1CC=NN1C(=O)c1cnccn1 (stereo unspecified) .
A: 77 to 79 °C

----------
Some compounds, each annotated with its measured melting point.

Example compounds with recorded melting point:
COMPOUND: OCc1ccc(OCCCCCCCCCCC2c3c(c4ccccc4c4ccccc34)-c3c2c2ccccc2c2ccccc32)cc1
READOUT VALUE: 64 to 66 °C

COMPOUND: COC(=O)C1=C(C)N=C(OC)N(C(=O)NCCCC(=O)OC(C)(C)C)C1c1ccc(F)cc1 (stereo unspecified)
READOUT VALUE: 135 to 138 °C

COMPOUND: CCCCCCCCCCS(=O)(=O)N[C@H]1CCCNC(=O)C1
READOUT VALUE: 98 to 99 °C

Q: Please report the recorded melting point for CNC(=O)N1C[C@@H](Oc2cccc(C(F)(F)F)c2)[C@@H]1C (relative stereo) .
A: 89 to 91 °C

Q: Please report the recorded melting point for CCCCCCCCCCCCCCCCCCNC(=O)OCC(CO)NC(=O)OC(C)(C)C (stereo unspecified) .
A: 73 to 75 °C

Q: Please report the recorded melting point for CCOC(=O)C(O)c1cc(Br)cn1CCOC(C)=O (stereo unspecified) .
A: 59 °C

----------
Some molecules, each annotated with its measured melting point.

MOLECULE: OCC/C(CCCCCCCCS)=C(\CCO)CCCCCCCCS
melting point: 67.4 to 68.2 °C
//
MOLECULE: COc1ccccc1-n1c(=O)[nH]c2c(C(N)=O)nc(Nc3ccc(Cn4ccnc4)cc3)nc21
melting point: 165 to 170 °C
//
MOLECULE: COP(=O)(OC)C(O)[C@H](CC1CCCCC1)NC(=O)[C@H](CC(C)C)NC(=O)OCc1ccccc1 (some centres not stated)
melting point: 151 °C
//
MOLECULE: COc1cccc(C(=O)N(CC=O)c2ccccc2OC)c1
melting point: 77 to 81 °C
//
MOLECULE: O=C(CSc1ncc(Br)cn1)c1ccccc1
melting point: 107 to 109 °C

Q: Please report the recorded melting point for COC(=O)C1C(=O)CCN(N2CCCCC2)C1=O (configuration not stated) .
A: 157 to 159 °C

Q: Please report the recorded melting point for `CCCCNC(=O)N(Cc1ccccn1)C1CCN(c2ncnc3cc(OC)c(OC)cc23)CC1` .
A: 162 to 164 °C

Q: Please report the recorded melting point for CCOC(=O)C1=C(C)NC(C)=C(C(=O)OCC=CC=Cc2ccccc2)C1c1cccc([N+](=O)[O-])c1 (configuration not stated) .
A: 143 to 147 °C

Q: Please report the recorded melting point for `CN1C(=O)Cc2ccccc2C1=O` .
A: 113 to 115 °C

Q: Please report the recorded melting point for `O=C(O)c1c(Oc2ccc(F)cc2)cccc1Oc1ccc2c(c1)OCO2` .
A: 164 to 166 °C

Q: Please report the recorded melting point for `CC(=S)NC[C@H]1CN(c2ccc(N3CCC(n4ccnn4)CC3)c(F)c2)C(=O)O1` .
A: 171 to 172 °C

Q: Please report the recorded melting point for `COC(c1ccc(NC(=O)c2c(C)nn(C)c2C)cc1CC(C)C)(C(F)(F)F)C(F)(F)F` .
A: 189 to 190 °C

----------
READOUT LABEL: melting point

Example molecules with recorded melting point:
MOLECULE: O=CN(c1cccc(C(F)(F)F)c1)c1cccc(C(F)(F)F)c1
melting point: 63 to 65 °C
//
MOLECULE: COc1ccc2c(c1)OC(CNCCCOc1ccc3c(=O)ccoc3c1)CO2 (stereo not given)
melting point: 155 to 157 °C
//
MOLECULE: O=S1(=O)c2cccc3cccc(c23)N1CCCN1CC=C(c2c[nH]c3ccc(F)cc23)CC1
melting point: 224 °C
//
MOLECULE: COC(=O)C1=C(C)NC(C)=C(C(=O)OCC=Cc2ccccc2)C1c1cccc([N+](=O)[O-])c1 (stereo not given)
melting point: 143 to 144 °C
//
MOLECULE: COc1ccc(Cn2c(=O)c3ccc([N+](=O)[O-])cc3n(CCCCBr)c2=O)cc1
melting point: 122 to 123 °C

Q: Please report the recorded melting point for `COc1ncc(NS(=O)(=O)c2cccc3c(N(C)C)cccc23)c(OC)n1` .
A: 201 °C

Q: Please report the recorded melting point for Cc1c(C(O)C(C)(C)C)cc(I)[nH]c1=O (stereo not given) .
A: 186 to 187 °C

Q: Please report the recorded melting point for `Brc1ccc(Cc2nccc(-c3ccc(Br)cc3)n2)cc1` .
A: 93 to 94 °C

----------
READOUT LABEL: melting point

Example molecules with recorded melting point:
MOLECULE: COC(=O)CCC#CCCC(=O)O
READOUT LABEL: melting point
READOUT VALUE: 71.5 to 72 °C
--
MOLECULE: OCc1c(Cl)c(Cl)c(Cl)c(Cl)c1Cl
READOUT LABEL: melting point
READOUT VALUE: 195 to 196 °C
--
MOLECULE: O=C(O)C1CCc2c(n(C(=O)c3ccccc3)c3ccc(Cl)cc23)C1 (centres undefined)
READOUT LABEL: melting point
READOUT VALUE: 196 to 197 °C

Now consider the entry below.
Q: Please report the recorded melting point for `CN(CCOc1ccc(NS(C)(=O)=O)cc1)CCc1ccc(NS(C)(=O)=O)cc1` .
A: 150 to 152 °C
